- system_name: ErbB2 insYVMA (HER2-YVMA, SEQ ID NO: 2) (Homo sapiens, UniProt P04626, INS775YVMA/P1170A)
- Sequence (P04626 with tags, fused parts or gaps INS775YVMA/P1170A limits assumed): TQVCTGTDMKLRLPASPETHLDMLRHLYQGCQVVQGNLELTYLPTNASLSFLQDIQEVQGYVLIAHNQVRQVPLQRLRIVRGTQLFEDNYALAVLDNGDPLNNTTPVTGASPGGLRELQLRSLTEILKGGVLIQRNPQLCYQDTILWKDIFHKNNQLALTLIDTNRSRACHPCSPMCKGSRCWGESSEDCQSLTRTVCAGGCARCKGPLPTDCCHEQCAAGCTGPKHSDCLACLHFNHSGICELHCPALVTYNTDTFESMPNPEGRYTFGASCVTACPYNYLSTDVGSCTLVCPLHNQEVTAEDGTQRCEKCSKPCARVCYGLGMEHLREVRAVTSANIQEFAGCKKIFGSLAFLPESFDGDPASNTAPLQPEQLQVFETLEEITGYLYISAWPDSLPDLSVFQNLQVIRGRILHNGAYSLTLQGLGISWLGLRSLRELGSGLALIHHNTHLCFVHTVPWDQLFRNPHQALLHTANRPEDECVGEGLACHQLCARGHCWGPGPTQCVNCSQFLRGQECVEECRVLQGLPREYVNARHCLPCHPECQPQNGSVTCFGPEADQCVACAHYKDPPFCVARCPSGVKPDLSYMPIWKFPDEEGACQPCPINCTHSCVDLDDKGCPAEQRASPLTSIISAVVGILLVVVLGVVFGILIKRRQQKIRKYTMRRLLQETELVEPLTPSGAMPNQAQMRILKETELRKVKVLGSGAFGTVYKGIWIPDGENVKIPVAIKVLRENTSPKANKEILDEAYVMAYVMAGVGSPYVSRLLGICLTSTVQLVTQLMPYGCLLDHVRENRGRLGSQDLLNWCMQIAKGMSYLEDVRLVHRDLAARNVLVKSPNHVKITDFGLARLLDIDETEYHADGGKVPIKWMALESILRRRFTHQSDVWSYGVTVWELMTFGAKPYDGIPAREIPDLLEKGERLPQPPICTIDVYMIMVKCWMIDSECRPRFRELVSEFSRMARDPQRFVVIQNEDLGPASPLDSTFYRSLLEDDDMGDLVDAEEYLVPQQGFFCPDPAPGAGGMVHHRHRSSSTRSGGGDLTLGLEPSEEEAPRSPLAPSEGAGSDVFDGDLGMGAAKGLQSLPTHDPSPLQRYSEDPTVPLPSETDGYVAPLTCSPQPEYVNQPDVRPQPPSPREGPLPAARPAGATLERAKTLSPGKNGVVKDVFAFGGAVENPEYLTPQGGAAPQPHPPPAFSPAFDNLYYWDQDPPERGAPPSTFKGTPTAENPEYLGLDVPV
- assay_remarks: biochemical
- details: ErbB2 insYVMA enzyme assay; read-out: Assay 1 IC50
Item-by-item account of IC50
measure: IC50 (nM)

compound	measure	units_of_measure	endpoint_result
Cc1cc(Nc2ncnc3cnc(NCC(C)(C)C#N)nc23)ccc1Oc1ccc2c(c1)ncn2C [Example 200]	IC50	nM	18.6
Cc1ncc(-c2ncc3ncnc(Nc4ccc(Oc5ccc6c(c5)ncn6C)c(C)c4)c3n2)s1 [Example 42]	IC50	nM	58.2
C[C@H]1CN(c2ncc3ncnc(Nc4ccc(Oc5ccc6c(c5)ncn6C)c(Cl)c4)c3n2)CCO1 [Example 450]	IC50	nM	26.1
Cc1cc(Nc2ncnc3cnc(O[C@H]4CN(C)CC[C@@H]4F)nc23)ccc1Oc1ccc2c(c1)ncn2C [Example 296]	IC50	nM	59.6
Cn1cnc2cc(Oc3ccc(Nc4ncnc5cnc(N6CC[C@H](CC#N)C6)nc45)cc3Cl)ccc21 [Example 358]	IC50	nM	53.2
Cc1cc(Nc2ncnc3cnc(N4CCC[C@@]45CCOC5)nc23)ccc1Oc1ccc2c(c1)ncn2C (racemic) [Example 115]	IC50	nM	52.4
